Rat.Funbound.plasma listing for selected molecules.
# System: plasma protein
# study-conditions: 4 h, 5 μM, pH 7.4
API note: the answer field is a bare number with no unit suffix.

Study these solved cases before continuing.
C#C[C@]1(O)CC[C@H]2[C@@H]3CCC4=CC(=O)CC[C@@H]4[C@H]3CC[C@@]21CC [Levonorgestrel, reference compound] ... 0.0194
CC/C(=C(\c1ccccc1)c1ccc(OCCN(C)C)cc1)c1ccccc1 [Tamoxifen, reference compound] ... 0.0094
O=S(=O)(c1ccc(Cl)cc1)c1ccc(Cl)cc1 [4,4'-dichlorodiphenyl sulfone] ... 0
CC1(C)[C@H](C(=O)O[C@H](C#N)c2cccc(Oc3ccccc3)c2)[C@@H]1C=C(Br)Br [Deltamethrin] ... 0.049
CCOC(=O)c1ccc(O)cc1 [Ethylparaben] ... 0.1275
Oc1ccc2ccccc2c1 [2-naphthalenol] ... 0.0513

q: Form entry - test system: plasma protein; read-out: Rat.Funbound.plasma; molecule: O=c1c(-c2ccc(O)cc2)coc2cc(O)ccc12 [Daidzein]
a: 0.0315

q: Form entry - test system: plasma protein; read-out: Rat.Funbound.plasma; molecule: O=C1OC(c2ccc(O)cc2)(c2ccc(O)cc2)c2ccccc21 [Phenolphthalein, reference compound]
a: 0.0086

q: Form entry - test system: plasma protein; read-out: Rat.Funbound.plasma; molecule: C#C[C@]1(O)CC[C@H]2[C@@H]3CCC4=CC(=O)CC[C@@H]4[C@H]3CC[C@@]21C [Norethindrone, reference compound]
a: 0.029

q: Form entry - test system: plasma protein; read-out: Rat.Funbound.plasma; molecule: CCCOC(=O)c1ccc(O)cc1 [Propylparaben]
a: 0.0241

* * *

// endpoint Rat.Clint_uL.min-1_million.cells-1 / system primary rat hepatocytes
Value and unit, in that order.

Study these solved cases before continuing.
C=C1C[C@]23C[C@@]1(O)CC[C@H]2[C@@]12C=C[C@H](O)[C@@](C)(C(=O)O1)[C@H]2[C@@H]3C(=O)O ... 0 uL.min-1_million.cells-1
O=[N+]([O-])c1cc(C(F)(F)F)c(Cl)c([N+](=O)[O-])c1Nc1ncc(C(F)(F)F)cc1Cl ... 233 uL.min-1_million.cells-1
CCOc1ccc(NC(C)=O)cc1 [Phenacetin, reference compound] ... 15.4 uL.min-1_million.cells-1

q: What value of Rat.Clint_uL.min-1_million.cells-1 has been recorded for this entry: c1ccc2c(c1)oc1ccccc12
a: 102.9 uL.min-1_million.cells-1

q: What value of Rat.Clint_uL.min-1_million.cells-1 has been recorded for this entry: CCOP(=S)(OCC)Oc1nc(Cl)c(Cl)cc1Cl
a: 184 uL.min-1_million.cells-1

q: What value of Rat.Clint_uL.min-1_million.cells-1 has been recorded for this entry: O=C(O)c1ccccc1
a: 0.78 uL.min-1_million.cells-1

q: What value of Rat.Clint_uL.min-1_million.cells-1 has been recorded for this entry: COC(=O)c1ccc(O)cc1
a: 86.2 uL.min-1_million.cells-1

q: What value of Rat.Clint_uL.min-1_million.cells-1 has been recorded for this entry: CCCCOC(=O)c1ccccc1C(=O)OCc1ccccc1 [Butyl benzyl phthalate]
a: 359 uL.min-1_million.cells-1

* * *

Rat.Funbound.plasma listing for selected molecules.
# Tested on: plasma protein
# assay-procedure: Plasma protein binding by rapid equilibrium dialysis (RED), fraction unbound in plasma (fup)
# study-conditions: rat plasma, RED, 5 μM, 4 hours at 37°C; This Work; below the limit of detection a default of 0.005 was assumed for modelling
API note: the answer field is a bare number with no unit suffix.

q: What value of Rat.Funbound.plasma has been recorded for this entry: C[C@]12CC[C@@H]3c4ccc(O)cc4CC[C@H]3[C@@H]1C[C@@H](O)[C@@H]2O [Estriol, reference compound]
a: 0.106

q: What value of Rat.Funbound.plasma has been recorded for this entry: COC(=O)[C@H]1[C@H]2C[C@@H]3c4[nH]c5cc(OC)ccc5c4CCN3C[C@H]2C[C@@H](OC(=O)c2cc(OC)c(OC)c(OC)c2)[C@@H]1OC [Reserpine, reference compound]
a: 0.0143

q: What value of Rat.Funbound.plasma has been recorded for this entry: O=c1c(O)c(-c2ccc(O)cc2)oc2cc(O)cc(O)c12 [Kaempferol]
a: 0.0144

q: What value of Rat.Funbound.plasma has been recorded for this entry: O=P(c1ccccc1)(c1ccccc1)c1ccccc1 [Triphenylphosphine oxide]
a: 0.1325

src = paper PMC6538186
